meta.source: the supplement of paper PMC11061612

Tested on: LB996-RCC (Kidney Carcinoma);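 further: after 72 h of two-drug dosing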
Test: Bliss excess, mean over the matrix (fraction); higher = more synergy
Consider the following molecules; for each one, report its Bliss excess.
Answers are plain numbers.

See these solved cases before continuing.
Cc1c2c(nn1C)CSCc1cc(n(C)n1)CSc1cc(c3ccccc3c1)OCCCc1c(C(=O)O)n(C)c3c-2c(Cl)ccc13 [AZD5991] + CCN(CCO)CCCOc1ccc2c(Nc3cc(CC(=O)Nc4cccc(F)c4)[nH]n3)ncnc2c1 [AZD2811] (first compound max 1 µM, 7x7, partner max 1 µM) :: -0.0388
CC1(C)CCC(CN2CCN(c3ccc(C(=O)NS(=O)(=O)c4ccc(NCC5CCOCC5)c([N+](=O)[O-])c4)c(Oc4cnc5[nH]ccc5c4)c3)CC2)=C(c2ccc(Cl)cc2)C1 [Venetoclax] + Cn1cnc2c(F)c(Nc3ccc(Br)cc3Cl)c(C(=O)NOCCO)cc21 [Selumetinib] (first compound max 1 µM, 7x7, partner max 3 µM) :: -0.0209
COc1cccc(OCCCN)c1-c1cc(Nc2cnc(C#N)cn2)n[nH]1 [Prexasertib] + CN(C)CCCOc1ccc(-c2ccc3ncc4c(c3c2)n(C2CCOCC2)c(=O)n4C)cn1 [AZD0156] (first compound max 1 µM, 7x7, partner max 1 µM) :: 0.0028

Consider now this further molecule.
Task item: # value lookup — system LB996-RCC (Kidney Carcinoma), readout Bliss excess, item COc1cc2c(cc1OCCCCCOc1cc3c(cc1OC)C(=O)N1C=C(C)C[C@H]1C=N3)N=C[C@@H]1CC(C)=CN1C2=O [SG3199] + O=C(c1cc(Cc2n[nH]c(=O)c3ccccc23)ccc1F)N1CCN(C(=O)C2CC2)CC1 [Olaparib] (first compound max 0.001 µM, 7x7, partner max 10 µM);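 further: after 72 h of two-drug dosing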
Reply: 0.0077
